Tgt: WEE1 (Homo sapiens, UniProt P30291+Q96SW2)
Construct: C-terminal ePL-tagged (DiscoverX, Fremont, CA) full-length WEE1 expression construct; expressed in transfected cells; host or cells: LentiX-HEK293T (Invitrogen), lentivirally transduced; the cells also over-express GSPT1-GN
Sequence (P30291 whole entry): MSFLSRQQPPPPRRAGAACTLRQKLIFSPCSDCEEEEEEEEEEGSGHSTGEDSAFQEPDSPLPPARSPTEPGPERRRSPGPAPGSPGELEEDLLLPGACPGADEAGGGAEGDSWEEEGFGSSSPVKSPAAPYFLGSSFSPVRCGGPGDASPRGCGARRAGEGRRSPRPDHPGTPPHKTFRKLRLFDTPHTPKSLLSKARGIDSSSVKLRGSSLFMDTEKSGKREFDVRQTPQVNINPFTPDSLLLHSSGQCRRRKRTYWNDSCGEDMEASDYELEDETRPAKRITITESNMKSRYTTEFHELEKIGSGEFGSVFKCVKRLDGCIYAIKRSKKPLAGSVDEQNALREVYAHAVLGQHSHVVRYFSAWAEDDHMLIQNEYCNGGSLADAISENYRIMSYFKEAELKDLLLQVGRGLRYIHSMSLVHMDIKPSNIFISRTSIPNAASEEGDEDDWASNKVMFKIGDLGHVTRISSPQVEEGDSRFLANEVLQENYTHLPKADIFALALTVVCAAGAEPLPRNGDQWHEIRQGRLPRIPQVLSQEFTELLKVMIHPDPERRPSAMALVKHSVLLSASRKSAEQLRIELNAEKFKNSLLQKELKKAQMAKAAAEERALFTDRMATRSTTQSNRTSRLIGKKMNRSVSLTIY
Sequence (Q96SW2 whole entry): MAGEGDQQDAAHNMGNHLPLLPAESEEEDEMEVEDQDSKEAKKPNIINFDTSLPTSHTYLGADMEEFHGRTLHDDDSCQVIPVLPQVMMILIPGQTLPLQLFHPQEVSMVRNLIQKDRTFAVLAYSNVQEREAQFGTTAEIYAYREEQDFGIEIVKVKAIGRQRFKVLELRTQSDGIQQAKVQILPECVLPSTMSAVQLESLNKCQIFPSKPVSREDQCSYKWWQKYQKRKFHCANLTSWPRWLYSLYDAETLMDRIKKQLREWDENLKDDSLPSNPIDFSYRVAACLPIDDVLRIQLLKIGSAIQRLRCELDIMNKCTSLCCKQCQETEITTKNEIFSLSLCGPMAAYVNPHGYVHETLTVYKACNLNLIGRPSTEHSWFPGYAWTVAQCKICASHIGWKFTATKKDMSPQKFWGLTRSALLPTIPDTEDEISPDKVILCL
Sequence (Q16531 whole entry partner): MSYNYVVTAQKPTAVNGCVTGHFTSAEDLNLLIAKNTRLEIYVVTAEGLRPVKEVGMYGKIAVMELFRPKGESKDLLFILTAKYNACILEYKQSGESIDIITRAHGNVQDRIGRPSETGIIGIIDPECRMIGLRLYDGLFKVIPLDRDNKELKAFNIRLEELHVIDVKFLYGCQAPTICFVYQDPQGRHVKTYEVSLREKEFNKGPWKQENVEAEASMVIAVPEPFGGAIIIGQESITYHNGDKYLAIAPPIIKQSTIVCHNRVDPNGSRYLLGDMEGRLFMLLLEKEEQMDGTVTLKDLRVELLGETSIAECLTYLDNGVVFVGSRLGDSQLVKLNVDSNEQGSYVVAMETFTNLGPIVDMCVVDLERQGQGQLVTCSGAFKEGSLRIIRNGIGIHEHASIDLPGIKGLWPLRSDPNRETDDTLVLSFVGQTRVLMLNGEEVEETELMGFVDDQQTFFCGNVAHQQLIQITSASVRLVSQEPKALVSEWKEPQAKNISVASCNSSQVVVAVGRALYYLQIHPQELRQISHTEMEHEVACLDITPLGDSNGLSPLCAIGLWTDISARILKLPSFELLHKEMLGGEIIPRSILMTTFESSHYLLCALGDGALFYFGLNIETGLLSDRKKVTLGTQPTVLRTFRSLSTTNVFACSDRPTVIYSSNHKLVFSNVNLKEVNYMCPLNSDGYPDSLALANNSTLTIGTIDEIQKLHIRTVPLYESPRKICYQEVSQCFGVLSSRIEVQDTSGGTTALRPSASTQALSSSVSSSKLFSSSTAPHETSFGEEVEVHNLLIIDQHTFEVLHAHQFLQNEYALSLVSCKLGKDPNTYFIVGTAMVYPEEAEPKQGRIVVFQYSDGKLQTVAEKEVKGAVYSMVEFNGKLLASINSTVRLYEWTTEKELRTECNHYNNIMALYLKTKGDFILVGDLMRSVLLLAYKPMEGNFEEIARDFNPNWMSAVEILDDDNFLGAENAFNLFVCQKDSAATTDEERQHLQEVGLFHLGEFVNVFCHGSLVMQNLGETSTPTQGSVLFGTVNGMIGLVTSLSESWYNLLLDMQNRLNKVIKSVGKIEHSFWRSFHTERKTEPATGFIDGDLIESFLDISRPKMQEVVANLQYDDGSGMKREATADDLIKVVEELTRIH
Experiment notes: WEE1-ePL degradation assay (293T-LentiX, InCELL Hunter luminescence, 4 hr)
Type: cell-based
Condition label: lower limit of fit, % of DMSO control signal remaining; 4 hr
293T-LentiX WEE1-ePL Degradation 4 hr YMin (%) values by entry
Write the value in % as a bare number.

// worked examples, 293T-LentiX WEE1-ePL Degradation 4 hr YMin (%) included
{"columns": ["Compound", "Tgt", "Uom", "Measured result"],
 "data": [
  ["COC[C@@H]1CN(Cc2cc(F)c3ncc(C4CCOCC4)cc3c2)C[C@H]1Oc1ccc2c(c1)CN([C@H]1CCC(=O)NC1=O)C2=O [Example 109]", "WEE1 (Homo sapiens, UniProt P30291+Q96SW2)", "%", 27.5],
  ["COC[C@@H]1CN(Cc2ccc3ccc(N4CCOCC4)nc3c2F)C[C@H]1Oc1ccc2c(c1)CN([C@H]1CCC(=O)NC1=O)C2=O [Example 105]", "WEE1 (Homo sapiens, UniProt P30291+Q96SW2)", "%", 40.7],
  ["COC[C@@H]1CN(Cc2cc(F)c3nc(C4CCCOC4)ncc3c2)C[C@H]1Oc1ccc2c(c1)CN([C@H]1CCC(=O)NC1=O)C2=O (relative stereo) [Example 78]", "WEE1 (Homo sapiens, UniProt P30291+Q96SW2)", "%", 27.1],
  ["COC[C@@H]1CN(Cc2cc(F)c3nc(N4CCOC5(CC5)C4)ncc3c2)C[C@H]1Oc1ccc2c(c1)CN([C@H]1CCC(=O)NC1=O)C2=O [Example 79]", "WEE1 (Homo sapiens, UniProt P30291+Q96SW2)", "%", 28.7],
  ["COC[C@@H]1CN(Cc2cc(F)c3nc(N4CCCC4=O)ccc3c2)C[C@H]1Oc1ccc2c(c1)CN([C@H]1CCC(=O)NC1=O)C2=O [Example 59]", "WEE1 (Homo sapiens, UniProt P30291+Q96SW2)", "%", 29.1],
  ["CC(C)C[C@H]1CN(Cc2cc(F)c3nc(C4CCOCC4)ccc3c2)C[C@@H]1Oc1ccc2c(c1)CN([C@H]1CCC(=O)NC1=O)C2=O (relative stereo) [Example 148]", "WEE1 (Homo sapiens, UniProt P30291+Q96SW2)", "%", 28.4],
  ["O=C1CC[C@H](N2Cc3cc(O[C@H]4CCN(Cc5ccc6nc([C@@H]7CCO[C@]8(CCOC8)C7)ccc6c5)C4)ccc3C2=O)C(=O)N1 (relative stereo) [Example 21]", "WEE1 (Homo sapiens, UniProt P30291+Q96SW2)", "%", 29.8],
  ["O=C1CCC(N2Cc3cc(O[C@H]4CN(Cc5cc(F)c6nc(C7CCOCC7)ccc6c5)C[C@@H]4OC4COC4)ccc3C2=O)C(=O)N1 (relative stereo) [Example 152]", "WEE1 (Homo sapiens, UniProt P30291+Q96SW2)", "%", 82.2],
  ["COC[C@@H]1CN(Cc2ccc3c(ccn3C(=O)C3CCOCC3)c2)C[C@H]1Oc1ccc2c(c1)CN([C@H]1CCC(=O)NC1=O)C2=O [Example 25]", "WEE1 (Homo sapiens, UniProt P30291+Q96SW2)", "%", 39.0],
  ["COC[C@@H]1CN(Cc2cc(F)c3nc(N4C[C@H]5C[C@@H](C4)O5)ccc3c2)C[C@H]1Oc1ccc2c(c1)CN([C@H]1CCC(=O)NC1=O)C2=O [Example 47]", "WEE1 (Homo sapiens, UniProt P30291+Q96SW2)", "%", 28.7]
]}

Let us examine a further case.
*Q* Given the compound COC[C@@H]1CN(Cc2ccc3nc(N4C[C@H]5CCO[C@H]5C4)ncc3c2)C[C@H]1Oc1ccc2c(c1)CN([C@H]1CCC(=O)NC1=O)C2=O (single isomer, unassigned) [Example 8] , what is its reported 293T-LentiX WEE1-ePL Degradation 4 hr YMin (%)?
*A* 27.5

Data origin: patent US20250197374A1
